- TEST METHOD NOTES: The drug is tested on Bacteroides coprophilus strain: DSM18228 for biotransformation. The drug concentrations were measured before and after a 12-h incubation by liquid-chromatography-coupled mass spectrometry (LC–MS)
- SETUP CONDITIONS: 2 µM

| COMPOUND | Bacterial Biotransformation |
| --- | --- |
| CN(C)CCOC(c1ccc(Cl)cc1)c1ccccn1.O=C(O)/C=C\C(=O)O (centres undefined) [CARBINOXAMINE MALEATE] | Compound NOT metabolized |
| CCOC(=O)[C@H](CCc1ccccc1)N[C@@H](C)C(=O)N1Cc2ccccc2C[C@H]1C(=O)O | Compound metabolized |
| Cc1cn([C@H]2C[C@H](N=[N+]=[N-])[C@@H](CO)O2)c(=O)[nH]c1=O | Compound NOT metabolized |
| O=C1N=C([O-])NC1(c1ccccc1)c1ccccc1.[Na+] [PHENYTOIN SODIUM] | Compound metabolized |

====

- SETUP CONDITIONS: bacteroides fragilis, 12 h, 2 µM
- Description: The drug is tested on Bacteroides fragilis strain: DS-208 for biotransformation. The drug concentrations were measured before and after a 12-h incubation by liquid-chromatography-coupled mass spectrometry (LC–MS)

| COMPOUND | Bacterial Biotransformation |
| --- | --- |
| O=P(O)(O)O.c1ccc(CN(CC2=NCCN2)c2ccccc2)cc1 [ANTAZOLINE PHOSPHATE] | Compound NOT metabolized |
| CN1CCN(C2=Nc3ccccc3Oc3ccc(Cl)cc32)CC1.O=C(O)CCC(=O)O [LOXAPINE SUCCINATE] | Compound NOT metabolized |
| O=C([O-])C[C@H](O)C[C@H](O)/C=C/c1c(C2CC2)nc2ccccc2c1-c1ccc(F)cc1.O=C([O-])C[C@H](O)C[C@H](O)/C=C/c1c(C2CC2)nc2ccccc2c1-c1ccc(F)cc1.[Ca+2] | Compound NOT metabolized |
| CC(=O)OCC(=O)[C@@]1(OC(C)=O)[C@@H](C)C[C@H]2[C@@H]3C[C@H](F)C4=CC(=O)C=C[C@]4(C)[C@@]3(F)[C@@H](O)C[C@@]21C [DIFLORASONE DIACETATE] | Compound metabolized |
| CC(=O)Oc1ccc(C(c2ccc(OC(C)=O)cc2)c2ccccn2)cc1 | Compound metabolized |
| Nc1ccc(/N=N/c2ccccc2)c(N)n1 | Compound metabolized |
| CC(=O)OCC(=O)[C@@]1(O)[C@@H](C)C[C@H]2[C@@H]3CCC4=CC(=O)C=C[C@]4(C)[C@@]3(F)[C@@H](O)C[C@@]21C [BETAMETHASONE ACETATE] | Compound metabolized |

====

- TEST METHOD NOTES: The drug is tested on Bacteroides fragilis strain: ATCC43859 for biotransformation. The drug concentrations were measured before and after a 12-h incubation by liquid-chromatography-coupled mass spectrometry (LC–MS)
- SETUP CONDITIONS: 2 µM

| MOLECULE | Bacterial Biotransformation |
| --- | --- |
| Cc1ccc(NC(=O)c2ccc(CN3CCN(C)CC3)cc2)cc1Nc1nccc(-c2cccnc2)n1 [IMATINIB] | Compound NOT metabolized |
| CN1CCN(C2=Nc3ccccc3Oc3ccc(Cl)cc32)CC1.O=C(O)CCC(=O)O [LOXAPINE SUCCINATE] | Compound NOT metabolized |
| O=C1NCC2(CCN(CCc3ccccc3)CC2)O1 [FENSPIRIDE] | Compound metabolized |
| C#C[C@]1(OC(C)=O)CC[C@H]2[C@@H]3CCC4=CC(=O)CC[C@@H]4[C@H]3CC[C@@]21C [NORETHINDRONE ACETATE] | Compound metabolized |
